- study_system: recombinant pentameric gH complex (Towne strain) (human cytomegalovirus, Towne strain) (UniProt P17176)
- Sequence (P17176 30-715, one chain of several): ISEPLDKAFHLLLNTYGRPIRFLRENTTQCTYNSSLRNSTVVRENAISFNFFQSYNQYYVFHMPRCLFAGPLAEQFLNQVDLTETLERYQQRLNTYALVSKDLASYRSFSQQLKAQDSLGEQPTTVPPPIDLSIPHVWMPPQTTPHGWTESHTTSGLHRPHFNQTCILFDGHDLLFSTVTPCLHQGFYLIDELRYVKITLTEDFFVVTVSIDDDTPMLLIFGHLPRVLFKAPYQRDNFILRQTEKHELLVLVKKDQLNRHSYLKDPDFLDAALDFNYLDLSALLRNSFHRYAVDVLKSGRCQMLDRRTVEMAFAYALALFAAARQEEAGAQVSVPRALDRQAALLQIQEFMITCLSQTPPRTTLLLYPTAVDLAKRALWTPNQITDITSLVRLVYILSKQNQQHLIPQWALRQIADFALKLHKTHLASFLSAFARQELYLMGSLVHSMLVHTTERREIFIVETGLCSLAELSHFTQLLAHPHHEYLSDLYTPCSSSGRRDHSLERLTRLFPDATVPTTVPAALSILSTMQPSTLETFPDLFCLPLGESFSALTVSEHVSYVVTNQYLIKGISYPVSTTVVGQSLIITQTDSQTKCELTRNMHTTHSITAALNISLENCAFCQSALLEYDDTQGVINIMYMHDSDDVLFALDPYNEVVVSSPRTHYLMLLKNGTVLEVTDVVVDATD
- experimental_protocol: BLI competition on His-pentamer; competitor (antibody 2): 3-16

binder: 3-7 (antibody, V domains shown) VH: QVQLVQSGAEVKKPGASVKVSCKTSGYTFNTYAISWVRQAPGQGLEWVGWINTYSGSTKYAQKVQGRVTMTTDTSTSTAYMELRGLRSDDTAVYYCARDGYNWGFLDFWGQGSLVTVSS VL: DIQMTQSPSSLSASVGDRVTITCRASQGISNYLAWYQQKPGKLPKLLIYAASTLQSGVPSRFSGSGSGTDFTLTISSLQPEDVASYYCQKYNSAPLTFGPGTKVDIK
Pair-wise inhibition (%): 97
//
binder: 1-85 (antibody, V domains shown) VH: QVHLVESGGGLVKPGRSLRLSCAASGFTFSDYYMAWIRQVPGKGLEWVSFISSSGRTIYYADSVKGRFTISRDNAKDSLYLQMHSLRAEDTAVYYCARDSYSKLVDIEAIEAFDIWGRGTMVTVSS VL: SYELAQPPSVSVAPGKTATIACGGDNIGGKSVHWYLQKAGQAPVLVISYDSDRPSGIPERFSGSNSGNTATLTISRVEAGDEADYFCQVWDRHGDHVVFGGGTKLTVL
Pair-wise inhibition (%): 37
//
binder: 3-16 (antibody, V domains shown) VH: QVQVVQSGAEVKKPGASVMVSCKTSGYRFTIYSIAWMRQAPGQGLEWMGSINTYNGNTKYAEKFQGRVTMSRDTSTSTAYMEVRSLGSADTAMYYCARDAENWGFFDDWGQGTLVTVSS VL: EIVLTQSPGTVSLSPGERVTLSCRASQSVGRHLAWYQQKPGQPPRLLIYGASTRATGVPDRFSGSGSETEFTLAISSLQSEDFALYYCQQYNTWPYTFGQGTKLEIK
Pair-wise inhibition (%): 88
